B1: HDV Ribozyme (parent)
chain: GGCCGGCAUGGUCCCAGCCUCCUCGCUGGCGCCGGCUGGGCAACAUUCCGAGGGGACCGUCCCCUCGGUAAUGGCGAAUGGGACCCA

variants of: B1; assay: self-cleavage, relative activity (ratio to wild type); higher = more cleavage; co-transcriptional
Please use yes whenever self-cleavage is not below 0.6, and no whenever it is.

Inquiry: Dear colleague, could you confirm whether GGCCGGCAUGGUCCCAGCCUCCUCGCUGGCGCCGGUUGGGCAACAUUCCGAGGGGACCGUCCCCUCGGUACUGGCGAAUGGGACCCA [C36U A71C] has self-cleavage at or above 0.6?
Reply text: no

Inquiry: Let us now turn to GGCUGGCAUGGUCCCAGCCUCCUCGCUGGCGCCGGCUGGCCAACAUUCCGAGGGGACCGUCCCCUCGGUAAUGGCGAAUGGGACCCA [C4U G40C]
Reply text: no

Inquiry: Let us now turn to GGCCGGCAUGAUCCCAGCCUCCUCGCUGGCGCCGGCUGGGCAACAUUCCGAGGGGACCGUCCCCUCGGUAAUGGCGAAUAGGACCCA [G11A G80A]
Reply text: no

Inquiry: Let us now turn to GGCCGGCAUGGUCCCAGCCUCCUCGCUGGCGCCGGCUGGGCAACAUUCCGAGGGGACCGUCCCGUCGGUAAUGGCGAUUGGGACCCA [C64G A78U]
Reply text: no

Inquiry: Let us now turn to GGCCGGCAUGGUCCCAGCCUCCUCGCUCGCGCCGACUGGGCAACAUUCCGAGGGGACCGUCCCCUCGGUAAUGGCGAAUGGGACCCA [G28C G35A]
Reply text: no

Inquiry: Let us now turn to GGCCGGCAUGGUCCCAGCCUCCUCGCAGGCGCCGGCUGGGCAACGUUCCGAGGGGACCGUCCCCUCGGUAAUGGCGAAUGGGACCCA [U27A A45G]
Reply text: yes

Inquiry: Let us now turn to GGCCGGCAUGGUCCCAGCCUCCUCGCUGGCGCCGGCUGGGCAACAUUCCGAGGGGCCCUUCCCCUCGGUAAUGGCGAAUGGGACCCA [A56C G59U]
Reply text: yes

Inquiry: Let us now turn to GGCCGGCAUGGUCCCAGCCUCCUCGCUGGCGCCGGCUGGGCAACAUUCCGAGGGGACCGUCCCCUCGGUAAGGGCAAAUGGGACCCA [U72G G76A]
Reply text: yes

Inquiry: Let us now turn to GGCCGGCAUGUUCCCAGCCUCCUCGCUGGCGCCGGCUGGGCAACAUUCCGAGGAGACCGUCCCCUCGGUAAUGGCGAAUGGGACCCA [G11U G54A]
Reply text: no

Inquiry: Let us now turn to GGCCGGCAUGGUCCCAGCCUCCUCGCUGGCGCCGGCUGGGCAACAUUCCGAGAGGACCGUCCCCUCGGUAAUGGCGAAUGAGACCCA [G53A G81A]
Reply text: no

Inquiry: Let us now turn to GGCCGGCAUGGUCCCAGCCUCCUCUCUGGCGCGGGCUGGGCAACAUUCCGAGGGGACCGUCCCCUCGGUAAUGGCGAAUGGGACCCA [G25U C33G]
Reply text: no

Inquiry: Let us now turn to GGCCGGCAUGGUCCCAGCCUCCUCGCUGGCGCCGGCUGGGUAACAUUCCGAGGGGACCGUCCCCUCGGUAAUGGCGACUGGGACCCA [C41U A78C]
Reply text: no

Inquiry: Let us now turn to GGCCGGCAUGGUCCCAGCCUCCUCGCUGGCGCAAGCUGGGCAACAUUCCGAGGGGACCGUCCCCUCGGUAAUGGCGAAUGGGACCCA [C33A G34A]
Reply text: no

Inquiry: Let us now turn to GGCCGGCAUGGUCCCAGCCUCCUCGCUGGCGCCGGCUGGGCAACAUUCCUAGGGGACCGUCCCCUCGGUAAUGGCAAAUGGGACCCA [G50U G76A]
Reply text: yes

Inquiry: Let us now turn to GGCCGGCAUGGUCCCAGCCUCCUCGCUGGCGCCGGCUGGGCAACAUUCCGAUGGGACCGUCCCCUCGGUAAUGGCGAAUGGGACCCA [G52U]
Reply text: yes

Inquiry: Let us now turn to GGCCGGCAUGGUCCCAGCCUUCUCGCUGGCCCCGGCUGGGCAACAUUCCGAGGGGACCGUCCCCUCGGUAAUGGCGAAUGGGACCCA [C21U G31C]
Reply text: no

Inquiry: Let us now turn to GGCCGGCAUGGUCCCAGUCUCCUCGCUGGCGCCGGCUGGGCAACAUUCCGAGGGGACCGUCCCCUCGGUAAUGGUGAAUGGGACCCA [C18U C75U]
Reply text: no

Inquiry: Let us now turn to GCCCGGCAUGGUCCCAGGCUCCUCGCUGGCGCCGGCUGGGCAACAUUCCGAGGGGACCGUCCCCUCGGUAAUGGCGAAUGGGACCCA [G2C C18G]
Reply text: no

Inquiry: Let us now turn to UGCCGGCAUGGUCCCAGCCUCCUCGCUGGCGCCGGCUGGGCAACAUUCCGAGGGGACCGUCCCCUCGGCAAUGGCGAAUGGGACCCA [G1U U69C]
Reply text: no

Inquiry: Let us now turn to GGCCGGCAUGGUCCCAGCCUCCUCGCUGGCGCCGGCUGGGCAACAUUCCGAGGGGACAGUCCCCUCGGUAAUGGCGAAUGGGAACCA [C58A C84A]
Reply text: yes

Inquiry: Let us now turn to GGCCGGCAUGGUCCCAGCCUCCUCGCUGGCGCCGGCUGGGCAACAUUCCGAGGGGACCGUCCCCUAGGUAAUCGCGAAUGGGACCCA [C66A G73C]
Reply text: no

Inquiry: Let us now turn to GGCCGGCUUGGUCCCAGCCUCCUCGCUGGCGCCGGCUGGGCAACAUUCCGAGGGGACCGUCCCCUCGGUAAUGGCGGAUGGGACCCA [A8U A77G]
Reply text: yes

Inquiry: Let us now turn to GGCCGGCAUGGUCCCAGCCUCCUCCCUGGCGCCGGCUGGGCAACAUUCCGAGGGGACCGUCCCCUCGGUAAUGGCGAAUGGGAACCA [G25C C84A]
Reply text: no

Inquiry: Let us now turn to GGCGGGCAUGGUCCCAGCCUCCUCGCUGGCGCCGGCUGGGCAACAUUCGGAGGGGACCGUCCCCUCGGUAAUGGCGAAUGGGACCCA [C4G C49G]
Reply text: no

Inquiry: Let us now turn to GGCCGGCAUGGUCCCAGGCUGCUCGCUGGCGCCGGCUGGGCAACAUUCCGAGGGGACCGUCCCCUCGGUAAUGGCGAAUGGGACCCA [C18G C21G]
Reply text: no

Inquiry: Let us now turn to GGCCGGCAUGGUCCCAGCCUCCUCGCUGGCGCCGGCUGGGCAACAUUCCGAGGGCACCGUCCCCUCUGUAAUGGCGAAUGGGACCCA [G55C G67U]
Reply text: yes

Inquiry: Let us now turn to GGCCGGCAUGGUCCCAGCCUCCUGGCUGGCGCCGGCUGGGCAACAUUCCGAGGGGACCGUCCCCACGGUAAUGGCGAAUGGGACCCA [C24G U65A]
Reply text: no

Inquiry: Let us now turn to GGCCGGCAUGGUCCCAGCCUCCUCGCUGGUGCCGGCUGGGCAACAUUCCGAGGGGGCCGUCCCCUCGGUAAUGGCGAAUGGGACCCA [C30U A56G]
Reply text: yes

Inquiry: Let us now turn to GGCCGGCAUGGUCCCAGCCUCCUCGCUGGCGCCGGCUGGGCAACAUUCCGAGGGGACCGUCCCCUCGGUAAUGGCGCAUGGGACCCC [A77C A87C]
Reply text: no

Inquiry: Let us now turn to GGCCGGCAUUGUCCCAGCCUCCUCGCUGGCGCCGGCUGGGCAAAAUUCCGAGGGGACCGUCCCCUCGGUAAUGGCGAAUGGGACCCA [G10U C44A]
Reply text: no

Inquiry: Let us now turn to GGCCGGCAUGGUCCCAGCCUCCUCGCUGGCGCCGGCUGGGCAACAUUCCGAGGGGACUGUCCCCUAGGUAAUGGCGAAUGGGACCCA [C58U C66A]
Reply text: yes

Inquiry: Let us now turn to GGCCGGCAUGGUCCCAGCCUCCUCGCUGGCGCCGGCUGGGCAACAUUCCGGGGGGACCGUCCCCUCGGUAAUGGCGAAAGGGACCCA [A51G U79A]
Reply text: yes

Inquiry: Let us now turn to GGCCGGCAUGGUCCCAGCCUCCUCGCUGGAGCCGGCUGGGCAACAUUCCGACGGGACCGUCCCCUCGGUAAUGGCGAAUGGGACCCA [C30A G52C]
Reply text: no

Inquiry: Let us now turn to GGCCGGCAUGGUCCCAGCCUCCUCGCUGGCGCCGGCUGGGCAACAUUCCGAGGGGACCGUCCCCGCGGUAAUGGCGAAUGGCACCCA [U65G G82C]
Reply text: no

Inquiry: Let us now turn to GGCCGGCCUGGUCCCAGCCUCCUCGCUGGCGCCGGCUGGGCAACAUUCCGAGGGGACCGUCCCCUCGGUAAUGGCGAAUGCGACCCA [A8C G81C]
Reply text: no

Inquiry: Let us now turn to GGCCGGCAUGGUCCCAGCCGCCUCGCUGGCGCCGGCUGAGCAACAUUCCGAGGGGACCGUCCCCUCGGUAAUGGCGAAUGGGACCCA [U20G G39A]
Reply text: no

Inquiry: Let us now turn to GGCCGGCAUGGUCCCAGCCUCCUCGCCGGCGCCGGCUGGGCAACAUUCCGAGGGGAGCGUCCCCUCGGUAAUGGCGAAUGGGACCCA [U27C C57G]
Reply text: yes

Inquiry: Let us now turn to GGCCGGCAUGGUGCCAGCCUCCUCGCUGGCGCCGGCUGGGCAACAUUCCGAGGGGACCGUCCCCUCGGUAAUAGCGAAUGGGACCCA [C13G G73A]
Reply text: no

Inquiry: Let us now turn to GGCCGGCUUGAUCCCAGCCUCCUCGCUGGCGCCGGCUGGGCAACAUUCCGAGGGGACCGUCCCCUCGGUAAUGGCGAAUGGGACCCA [A8U G11A]
Reply text: no

Inquiry: Let us now turn to GGCCGGCAUGGUCCCAGCCUCCUCGCUGGCGCCGGCGGGGCAACAUUCCGAGGGGACCGUCCCCUCGGUACUGGCGAAUGGGACCCA [U37G A71C]
Reply text: no

Inquiry: Let us now turn to GGCCGGCAUGGUCCCAGCCUCCUCGCCGGCGCCGGCUGGGCAACAUACCGAGGGGACCGUCCCCUCGGUAAUGGCGAAUGGGACCCA [U27C U47A]
Reply text: no

Inquiry: Let us now turn to GGCCGGCAUGGUCACAGCCUCCUCGCUGGCGCCGGCUGGGCAACAUUCCGAGGGGACCGUCCCCUCGGUAAUGGCGAAUGUGACCCA [C14A G81U]
Reply text: yes

Inquiry: Let us now turn to GGCCGGCAUGGUCCCAGCCUCCUCGCUGGCGCCGGCUGGGCAACAUUCCGAGGGGACCAUCCCCUCGCUAAUGGCGAAUGGGACCCA [G59A G68C]
Reply text: yes

Inquiry: Let us now turn to GGCCGGCAUGGUCUCAGCCUCCUCGCUGGCGCCGGCUGGGCAACAUUCCGAGGGGACCGUCCCCACGGUAAUGGCGAAUGGGACCCA [C14U U65A]
Reply text: yes

Inquiry: Let us now turn to GGCCGGCAUGGUCCCAGCCUCCUCGCUGGCGCCGGCUGGGCAACAGUCCGAGGGGACCGUCCCCUCGGUAAUGGCAAAUGGGACCCA [U46G G76A]
Reply text: yes
